# System: Staphylococcus aureus
# PROTOCOL_DESCRIPTION: Antibacterial activity against Staphylococcus aureus MRSA ATCC 43300 (CO-ADD:GP_020); MIC in CAMBH media using NBS plates, by Resazurin F(560/590)
# Format: functional
# DETAILS: Concentration 20 uM, ASSAY_TEST Inhibition of Bacterial Growth, detection method Resazurin, Fluorescence (ex560/em590), MEDIA CAMHB, plate type 384well, CORNING #3640, time 18 hr
Kindly state Inhibition for each of the entries shown.
Give bare numbers, in %.

Look over these answered cases.
COMPOUND: COc1ccccc1NC(=O)c1cc2ccccc2cc1O
Inhibition (%): 12.35
--
COMPOUND: CCOC(=O)Nc1ccc2nc(Sc3ccc(Cl)cc3)sc2c1
Inhibition (%): 12.84
--
COMPOUND: CC1=NN(c2ccccc2)C(=O)C1/N=N/c1ccc(S(N)(=O)=O)cc1 (stereo unspecified)
Inhibition (%): -7.63
--
COMPOUND: CCCCN1CCN=C1S
Inhibition (%): 9.78
--
COMPOUND: NC(=O)c1nc2c([nH]c1=O)CCCC2
Inhibition (%): 15.95

Hi, could you look up Inhibition for each item in my list?
1. CC(=O)NC1(C(=O)O)CCCC1
2. S=C(Sc1ccc(Cl)cc1)Sc1ccc(Cl)cc1
3. O=C(CCl)NC1(C(=O)O)CCCC1
4. O=C(O)/C(=C/c1ccccc1)c1ccccc1
5. c1ccc(-c2nnc3oc(-c4cccs4)nn23)cc1
6. CC(C)(C)N1CCC1CN (stereo unspecified)
7. Oc1ccc(Cl)nn1

1: 8.27; 2: -6.64; 3: -0.81; 4: 7.86; 5: -2.52; 6: 2.17; 7: 1.52

Give Inhibition for all compounds that follow.
1. COc1cc2c(c(OC)c1O)C(=O)CO2
2. O=[N+]([O-])c1cccnc1Oc1cccnc1
3. CCOc1ccc(NC(=O)N(O)C2(C#N)CCCCC2)cc1
4. Nc1ccccc1C(=O)Nc1ccc(Cl)cc1Cl
5. CC(C)Oc1ccc(C(=O)O)cc1
6. C=CCNC(=O)C1COc2ccccc2O1 (stereo unspecified)
7. O=c1cc2oc3cc(O)c(O)cc3c(-c3ccccc3O)c-2cc1O
8. NS(=O)(=O)c1ccc(NC2(C(=O)O)CCCC2)cc1

1. -11.73
2. 16.25
3. 13.16
4. 13.76
5. 3.26
6. -8.47
7. -11.77
8. 11.74

Item: COC1OCC(O)C(NC(=O)N(C)N=O)C1O (stereo unspecified) Test system: Staphylococcus aureus Read-out: Inhibition Value: ?
-1.39

---

Please provide measured Inhibition for the entries that follow.
# System: Klebsiella pneumoniae
# DETAILS: Concentration 20 uM; ASSAY_TEST Inhibition of Bacterial Growth; detection method Absorption (OD600); MEDIA CAMHB; plate type 384well; NBS; CORNING #3640; time 18 hr
# Description: Antibacterial activity against Klebsiella pneumoniae MDR ATCC 70063 (CO-ADD:GN_003); MIC in CAMBH media using NBS plates, by OD(600)
Results with a measured potency or affinity are listed apart.
Numbers only, in %.

Worked examples, 3 molecules total:
MOLECULE: Clc1nc2nc3n(c2nc1Cl)CCC3
TESTED_SYSTEM: Klebsiella pneumoniae
RESULT_UNIT: %
Inhibition: 2.17
--
MOLECULE: COC1OC(CO)C(N=C(C)C)C1O (stereo unspecified)
TESTED_SYSTEM: Klebsiella pneumoniae
RESULT_UNIT: %
Inhibition: 2.78
--
MOLECULE: COc1ccc(Cc2nnc(SC)n2-c2ccc(F)cc2)cc1OC
TESTED_SYSTEM: Klebsiella pneumoniae
RESULT_UNIT: %
Inhibition: 14.43

For each of the molecules below, note its Inhibition.
1. O=C(Nc1ccc(Oc2ccc(NC(=O)Nc3ccc([N+](=O)[O-])cc3)cc2)cc1)Nc1ccc([N+](=O)[O-])cc1
2. CC(=O)NCC(=O)O.CN(C)CCC1c2ccc(Cl)cc2CCc2cccnc21 (stereo unspecified) [CLOSIRAMINE ACETURATE]
3. Clc1ccccc1-c1nc2ccccc2[nH]1

[15.1, 8.33, 12.13]
